# Test system: 855422-203-R-J1-PDC complex spheroids, viability;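 note: spheroids exposed to drugs for seven days before readout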
# assayMethodText: Anticancer human tumor 855422-203-R-J1-PDC patient-derived bladder carcinoma cell line growth inhibition [CLK]; active = viability on the fitted dose curve at most 10% of control; inactive = the rest
# testContext: second compound 3.16 µM; first compound 0.0316 µM
The categories you may choose from are active, inactive

Field: example entries. Status: answers known.
Cn1ncnc1[C@H]1c2n[nH]c(=O)c3cc(F)cc(c23)N[C@@H]1c1ccc(F)cc1 + CN1CCN(c2cc(C(=O)Nc3cc4cc(-c5cnn(C)c5)ccc4cn3)ccn2)CC1 : active
O=c1[nH]cc(F)c(=O)[nH]1 + CN1CCN(c2cc(C(=O)Nc3cc4cc(-c5cnn(C)c5)ccc4cn3)ccn2)CC1 : active

Here is the next item to consider.
## Input Recorded test outcome, item CCCS(=O)(=O)Nc1ccc(F)c(C(=O)c2c[nH]c3ncc(-c4ccc(Cl)cc4)cc23)c1F + CNC(=O)c1ccc(Nc2nc(OC3CCCC3)c3c(-c4ccc5nc(C)oc5c4)c[nH]c3n2)c(OC)c1
## Output inactive
